Data origin, for the record: patent US9546153B2

measurement_target: IRAK4 (Homo sapiens (Human), UniProt Q9NWZ3)
Sequence (Q9NWZ3 whole entry, species assumed): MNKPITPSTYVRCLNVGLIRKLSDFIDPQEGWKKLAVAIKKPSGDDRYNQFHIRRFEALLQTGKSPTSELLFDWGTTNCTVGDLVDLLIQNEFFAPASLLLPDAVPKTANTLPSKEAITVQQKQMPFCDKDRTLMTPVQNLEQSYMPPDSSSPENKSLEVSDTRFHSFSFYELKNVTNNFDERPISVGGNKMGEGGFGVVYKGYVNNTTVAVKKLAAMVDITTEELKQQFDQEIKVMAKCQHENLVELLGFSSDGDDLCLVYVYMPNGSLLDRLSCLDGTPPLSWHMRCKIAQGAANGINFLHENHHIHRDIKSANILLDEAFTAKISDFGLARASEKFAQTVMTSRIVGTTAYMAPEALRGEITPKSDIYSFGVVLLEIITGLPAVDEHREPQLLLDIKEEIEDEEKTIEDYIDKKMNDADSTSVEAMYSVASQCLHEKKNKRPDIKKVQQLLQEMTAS
experiment_description: IRAK4 Inhibition Assay
Assay type: biochemical
condition_context: ATP 500 μM; IRAK4 0.6 nM; 60 min at room temperature
Assign pIC50 to each entry below.
Give bare numbers, as −log10 of the molar value.

Some compounds with known pIC50 results, for comparison:
> print(dat)
                                   compound  experimental.result
1  CC(=O)N[C@H]1CC[C@@H](NC(=O)c2cnc(Nc3ccc4ncsc4c3)cc2NC(C)C)CC1                 8.46
2  CC(C)(O)[C@H](F)CNC(=O)c1cnc(Nc2ncc3ncccc3n2)cc1NC1CCC(F)C1 (stereo partly shown)                 7.78
3  CC(C)(O)[C@H](F)CNC(=O)c1cnc(Nc2nc3ccnn3cc2F)cc1NC1CCCCC1(F)F (stereo partly shown)                 8.19
4  CNC(=O)c1cnc(Nc2ccc3c(c2)C(F)(F)C(=O)N3)cc1NC1CCCC1                 8.36

I need pIC50 for every entry listed below, if you could help.
1. CC(C)(O)[C@H](F)CNC(=O)c1cnc(Nc2nc3ccnn3cc2F)cc1NC1CCOCC1F (stereo partly shown)
2. CC(C)Nc1cc(Nc2ccc3ncsc3c2)ncc1C(=O)NCC[C@@H](C)NC(=O)[C@@H]1CCC(F)(F)C1
3. CC(C)C(O)C(F)CNC(=O)c1cnc(Nc2ccc3ncsc3c2)cc1NC(c1ccccc1)C(O)CO (stereo not shown)

1. 8.31
2. 8.62
3. 8.52

Would you mind giving pIC50 for every compound in the list below?
1. CC(C)Nc1cc(Nc2nc3ccnn3cc2F)ncc1C(=O)NC[C@@H](F)C(C)(C)O
2. CC(C)Nc1cc(Nc2ccc3ncsc3c2)ncc1C(=O)NC[C@@H](F)C(O)C(C)C (stereo partly shown)
3. CC(C)(O)[C@H](F)CNC(=O)c1cnc(Nc2ccc3ncsc3c2)cc1NCC1CCCO1 (stereo partly shown)
4. CC(C)Nc1cc(Nc2ccc3ncsc3c2)ncc1C(=O)NC12CCC(N)(CC1)C2
5. CC(C)Nc1cc(Nc2cnc3[nH]ccc3c2)ncc1C(=O)NC[C@@H](F)C(C)(C)O
6. CC(C)Nc1cc(Nc2ccc3ncsc3c2)ncc1C(=O)N[C@H]1CC[C@H](NS(C)(=O)=O)CC1

1. 8.32
2. 8.37
3. 7.89
4. 8.02
5. 8.20
6. 8.59

Hi there! I need pIC50 for each item below, if you can.
1. CC(O)[C@H](F)CNC(=O)c1cnc(Nc2ccc3ncsc3c2)cc1NC1CCCC1 (stereo partly shown) [Example 29]
2. Cc1ccccc1CNc1cc(Nc2ccc3ncsc3c2)ncc1C(=O)NC[C@@H](F)C(C)(C)O
3. CC(C)(O)[C@H](F)CNC(=O)c1cnc(Nc2ccc3ncsc3c2)cc1NC1CCOCC1F (stereo partly shown) [Example 231]

1: 8.04; 2: 8.08; 3: 8.47
